tested on: T-Rex 293 cell line SC3 cells lacking increased expression of androgen receptor protein; assay: Cellular growth inhibition assay, T-Rex 293 SC3 cells without doxycycline (CellTiter-Glo, 72 hours); format: cell-based; details: 72 h, T-Rex 293 cell line SC3 cells not exposed to doxycycline (lacking increased androgen receptor expression)
The molecules listed here are annotated with their GI50.

Example cases with answers are listed next.
MOLECULE	MEASURED ATTRIBUTE	OBSERVED RESULT
Cc1sc2c(c1C)C(c1ccc(CC3CN(CC4CCN(c5ccc(C(=O)N[C@H]6CC[C@H](Oc7ccc(C#N)c(Cl)c7)CC6)nn5)CC4)C3)cc1)=N[C@H](Cc1ncco1)c1nnc(C)n1-2	GI50	1500 to 3000 nM
Cc1sc2c(c1C)C(c1ccc(CC3CC(C4CCCN(c5ccc(C(=O)N[C@H]6CC[C@H](Oc7ccc(C#N)c(Cl)c7)CC6)nn5)C4)C3)cc1)=N[C@@H](Cc1ncco1)c1nnc(C)n1-2 (stereo partly drawn)	GI50	< 500 nM

Okay, now this molecule:
Provide the documented GI50 with T-Rex 293 cell line SC3 cells lacking increased expression of androgen receptor protein as the system for Cc1sc2c(c1C)C(c1ccc(OC[C@@H]3CCCN(c4ccc(C(=O)N[C@H]5CC[C@H](Oc6ccc(C#N)c(Cl)c6)CC5)nn4)C3)cc1)=N[C@@H](Cc1ncco1)c1nnc(C)n1-2 < 500 nM
